The reported measurements were obtained from ChEMBL document CHEMBL1961873.

Entries annotated with measured inhibition
Target: Serine/threonine-protein kinase Nek7 (Homo sapiens) (UniProt Q8TDX7);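 also: reported values are mean inhibition of NEK7 from the GSK PKIS kinase screening panel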
Sequence (Q8TDX7 whole entry, looked up): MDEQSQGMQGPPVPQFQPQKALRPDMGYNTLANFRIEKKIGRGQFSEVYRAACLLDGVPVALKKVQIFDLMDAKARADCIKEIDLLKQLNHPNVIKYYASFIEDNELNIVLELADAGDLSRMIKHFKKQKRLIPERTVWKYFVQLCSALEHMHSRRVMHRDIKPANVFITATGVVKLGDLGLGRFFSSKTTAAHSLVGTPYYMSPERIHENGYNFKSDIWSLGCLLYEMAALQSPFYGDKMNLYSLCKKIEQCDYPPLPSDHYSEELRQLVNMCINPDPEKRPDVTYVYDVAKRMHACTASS
Settings: at 1 µM
Just the number please, in %, no unit attached.

> print(dat)
                                 cpd.smiles                       experimental.system  number
1  Cc1ccc(NC(=O)CC2CC2)cc1-c1ccc(C(=O)NCC2CC2)cc1  Serine/threonine-protein kinase Nek7 (Homo sapiens) (UniProt Q8TDX7)    4.36
2  NS(=O)(=O)c1ccc(N/N=C2\C(=O)Nc3ccc(Cl)cc32)cc1  Serine/threonine-protein kinase Nek7 (Homo sapiens) (UniProt Q8TDX7)    3.63
3  Nc1ccc(C#Cc2cncnc2Nc2ccc(OCc3cccc(F)c3)c(Cl)c2)cc1  Serine/threonine-protein kinase Nek7 (Homo sapiens) (UniProt Q8TDX7)    1.32
4  CN(C)C(=O)O[C@@H]1CN[C@@H](C#Cc2cc3ncnc(Nc4ccc(OCc5cccc(F)c5)c(Cl)c4)c3s2)C1  Serine/threonine-protein kinase Nek7 (Homo sapiens) (UniProt Q8TDX7)     2.3
5  Cc1cc(O)cc(C)c1/C=C/c1cncc(C(=O)N(C)C)c1  Serine/threonine-protein kinase Nek7 (Homo sapiens) (UniProt Q8TDX7)    4.65

Lookup result for `COc1ccc2ncnc(Nc3ccc(OCc4ccccc4)cc3)c2c1` ; measured inhibition: 2.49

Measured inhibition of `COC(=O)Nc1nc2cc(Oc3ccc(NC(=O)Nc4cccc(Br)c4)cc3)ccc2[nH]1` : 2.69

# inhibition of `FC(F)(F)c1ccc(-c2nn3ncccc3c2-c2ccnc(Nc3ccc4c(c3)OCCO4)n2)cc1` = -5.62

Sure, the documented inhibition for `C[C@@H](Oc1cc(-n2cnc3ccc(OC[C@@H](O)CO)cc32)sc1C(N)=O)c1ccccc1Cl` is 0.36

Notebook: `OCc1ccc(-c2nc(-c3ccccn3)c(-c3ccc4c(c3)OCO4)[nH]2)cc1` , inhibition read as 2.28
